Where do these numbers come from? They come from patent US5610177A.

molecular target: UniProtKB P24530; assay: HERBA-B, [125I]-ET-1 binding to recombinant human ETB receptor expressed in CHO-K1 cell membranes; design: expressed in transfected cells; host or cells: CHO-K1 cells (membranes)
Sequence (P24530 27-442): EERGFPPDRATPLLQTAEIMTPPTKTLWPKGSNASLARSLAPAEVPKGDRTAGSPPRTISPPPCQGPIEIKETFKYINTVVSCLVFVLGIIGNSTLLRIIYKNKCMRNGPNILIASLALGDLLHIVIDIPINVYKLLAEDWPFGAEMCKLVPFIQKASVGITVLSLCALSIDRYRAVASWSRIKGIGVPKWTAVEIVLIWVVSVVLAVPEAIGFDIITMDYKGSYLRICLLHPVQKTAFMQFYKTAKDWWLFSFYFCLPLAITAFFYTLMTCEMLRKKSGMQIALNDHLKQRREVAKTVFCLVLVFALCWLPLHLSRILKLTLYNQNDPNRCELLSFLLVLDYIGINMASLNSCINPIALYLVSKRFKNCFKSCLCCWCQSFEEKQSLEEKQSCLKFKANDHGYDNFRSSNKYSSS
TEST_READOUT: IC50 (nM)

{"COMPOUND": "C[C@](Cc1c[nH]c2ccccc12)(NC(=O)C(Cc1ccc2c(c1)OCO2)Cc1ccc2c(c1)OCO2)C(=O)O [Example 2]", "EXPERIMENTAL_TARGET": "UniProtKB P24530", "NUMERIC_READOUT": 1600}
{"COMPOUND": "C[C@](Cc1c[nH]c2ccccc12)(NCC(Cc1cccc2ccccc12)Cc1cccc2ccccc12)C(=O)O [Example 15]", "EXPERIMENTAL_TARGET": "UniProtKB P24530", "NUMERIC_READOUT": 9200}
{"COMPOUND": "C[C@](Cc1c[nH]c2ccccc12)(NC(=O)C(Cc1cccc2ccccc12)Cc1cccc2ccccc12)C(=O)O [Example 1]", "EXPERIMENTAL_TARGET": "UniProtKB P24530", "NUMERIC_READOUT": 570}

* * *

Biological target: endothelin receptor of rabbit renal artery vascular smooth muscle cells (Oryctolagus cuniculus, UniProt A5A8K3)
Sequence (A5A8K3 21-427): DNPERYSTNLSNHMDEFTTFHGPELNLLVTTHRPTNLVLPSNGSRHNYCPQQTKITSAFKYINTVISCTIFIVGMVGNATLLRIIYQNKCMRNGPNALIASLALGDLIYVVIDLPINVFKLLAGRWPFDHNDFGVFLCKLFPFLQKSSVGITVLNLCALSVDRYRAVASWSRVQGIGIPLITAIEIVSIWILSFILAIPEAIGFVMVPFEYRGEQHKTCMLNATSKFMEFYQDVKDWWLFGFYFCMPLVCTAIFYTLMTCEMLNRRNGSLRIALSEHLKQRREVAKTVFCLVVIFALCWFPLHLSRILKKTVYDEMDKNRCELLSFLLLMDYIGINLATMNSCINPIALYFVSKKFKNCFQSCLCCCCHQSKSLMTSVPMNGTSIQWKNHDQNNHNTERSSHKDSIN
pIC50: −log10 of the molar value.

{"MOLECULE": "Cc1ccccc1CC(Cc1ccccc1C)C(=O)N[C@](C)(Cc1c[nH]c2ccccc12)C(=O)O [Example 10]", "pIC50": "< 4.60"}
{"MOLECULE": "C[C@](Cc1c[nH]c2ccccc12)(NC(=O)C(Cc1ccccc1)Cc1ccccc1)C(=O)O [Example 5, Di-benzylacetyl-(α-methyl-D-tryptophan)]", "pIC50": "< 4.60"}
{"MOLECULE": "Cc1cccc(CC(Cc2cccc(C)c2)C(=O)N[C@](C)(Cc2c[nH]c3ccccc23)C(=O)O)c1 [Example 11]", "pIC50": "< 4.60"}
